molecular target: Single-stranded DNA-binding protein (Escherichia coli (strain K12)) (UniProt P0AGE0); assay: E. coli SSB displacement from DNA, counter-screen for HCV NS3 helicase inhibitor project, biochemical, fluorescence polarization, NIH Clinical Collection (AID 743271); settings: active compounds read high, concentration not given here
attribute measured: inhibition (%)
Numbers only, in %.

Reference set, count: 4
{"molecule": "Fc1ccc([C@@H]2CCNC[C@H]2COc2ccc3c(c2)OCO3)cc1", "inhibition, %": -1.64}
{"molecule": "CC(=O)[C@H]1CC[C@H]2[C@@H]3C[C@H](C)C4=CC(=O)CC[C@]4(C)[C@H]3[C@@H](O)C[C@]12C", "inhibition, %": 0.29}
{"molecule": "CN1C(C(=O)Nc2ccccn2)=C(O)c2ccccc2S1(=O)=O", "inhibition, %": 1.44}
{"molecule": "CCCCCCNC(=O)n1cc(F)c(=O)[nH]c1=O", "inhibition, %": 1.44}

Each molecule below has a reported value. Please supply its inhibition.
1. CN(C)CCc1c[nH]c2ccc(C[C@H]3COC(=O)N3)cc12
2. C[C@]12CCC(=O)C=C1CC[C@@H]1[C@@H]2C(=O)C[C@@]2(C)[C@H]1CC[C@]2(O)C(=O)CO
3. O=C(O)c1cc(=O)c2c(OCC(O)COc3cccc4oc(C(=O)O)cc(=O)c34)cccc2o1
4. CC(C)(C)NCC(O)COc1cccc2c1C[C@H](O)[C@H](O)C2 (stereo partly specified)
5. OC(CCN1CCCCC1)(c1ccccc1)C1CCCCC1 (stereo unspecified)

Reply |
1: -4.33; 2: 2.76; 3: 3.34; 4: 0.29; 5: -2.76
